- Study target: NS3h_1b(con1) (Hepatitis C virus genotype 1b)
- Construct: truncated C-terminally His-tagged NS3 proteins lacking the N-terminal protease, called NS3h; His-tag (C); made in house
- Sequence (Q9WMX2 1192-1657): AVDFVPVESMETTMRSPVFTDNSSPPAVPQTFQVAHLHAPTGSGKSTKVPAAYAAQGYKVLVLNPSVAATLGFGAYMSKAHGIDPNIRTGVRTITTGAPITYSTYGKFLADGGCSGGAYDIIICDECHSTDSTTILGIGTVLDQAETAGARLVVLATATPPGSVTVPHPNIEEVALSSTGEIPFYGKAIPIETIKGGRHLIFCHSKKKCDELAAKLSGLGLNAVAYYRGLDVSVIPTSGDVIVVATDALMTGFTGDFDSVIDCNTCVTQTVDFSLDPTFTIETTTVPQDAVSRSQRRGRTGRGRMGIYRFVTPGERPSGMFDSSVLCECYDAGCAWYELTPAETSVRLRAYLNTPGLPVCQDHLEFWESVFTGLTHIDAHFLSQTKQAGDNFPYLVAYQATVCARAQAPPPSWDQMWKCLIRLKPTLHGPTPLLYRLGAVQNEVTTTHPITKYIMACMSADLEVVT
- Assay protocol: RNA-stimulated ATP hydrolysis, pH 7.5, HCV
- Assay type: biochemical, hepatitis C virus genotype 1b(con1)
Measure: pIC50
Answer as the number alone; pIC50 is minus log10 of concentration in mol/L.

pIC50 of Cc1ccc2nc(-c3ccc4nc(-c5ccc(NC(=O)c6ccc(Cl)c(Cl)c6)cc5)sc4c3)sc2c1S(=O)(=O)O [Compound 18] , assay on NS3h_1b(con1) (Hepatitis C virus genotype 1b), is 4.14

The compound Cc1ccc2nc(-c3ccc4nc(-c5ccc(NC(=O)c6ccc(F)cc6)cc5)sc4c3)sc2c1S(=O)(=O)O.N [Compound 7] , tested on NS3h_1b(con1) (Hepatitis C virus genotype 1b), showed pIC50 of 4.14

Hey, NS3h_1b(con1) (Hepatitis C virus genotype 1b) data for Cc1ccc2nc(-c3ccc4nc(-c5ccc(NC(=O)c6ccc(Br)cc6)cc5)sc4c3)sc2c1S(=O)(=O)O [Compound 15] : pIC50 came out at 4.68

Note to self: pIC50 of Cc1ccc2nc(-c3ccc4nc(-c5ccc(NC(=O)c6ccc(N)cc6)cc5)sc4c3)sc2c1S(=O)(=O)O [Compound 6] with NS3h_1b(con1) (Hepatitis C virus genotype 1b) was 3.85
